# Tested on: Myzus persicae (Green Peach Aphid)
# method: whole plant or invertebrate
# Type: in vivo
# recordedConditions: 144 h, test rate of 24 ppm, systemic, roots of infested pea seedlings in test solution, 6 days
Each entry below carries its reported mortality at 24 ppm.

Here are 3 molecules together with their reported answers.
- CCS(=O)(=O)c1cc(OCC(F)F)cnc1-c1nc2cc(C(F)(F)F)ncc2n1C: ≥ 80%
- CCS(=O)(=O)c1cc(OC(C)C)cnc1-c1nc2cc([S+]([O-])C(F)(F)F)ncc2n1C (centres unmarked): ≥ 80%
- CCS(=O)(=O)c1cc(OCCCS(C)(=O)=O)cnc1-c1nc2cc(C(F)(F)F)ncc2n1C: ≥ 80%

### Prompt Give Myzus persicae (Green Peach Aphid) mortality at 24 ppm for CCS(=O)(=O)c1cc(OCC(F)F)ccc1-c1nc2cc(C(F)(F)F)ncc2n1C
### Response ≥ 80%

### Prompt Missing value: mortality at 24 ppm, Myzus persicae (Green Peach Aphid), entry CCS(=O)(=O)c1cc(OCCOC)cnc1-c1nc2cc(C(F)(F)F)ncc2n1C . Fill in?
### Response ≥ 80%

### Prompt What mortality at 24 ppm appears in the records for this molecule with Myzus persicae (Green Peach Aphid)? CCOc1cnc(-c2nc3cc(C(F)(F)F)ncc3n2C)c(S(=O)(=O)CC)c1
### Response ≥ 80%

### Prompt Query the reported mortality at 24 ppm for Myzus persicae (Green Peach Aphid); item: CCS(=O)(=O)c1cc(OCC(F)(F)F)cnc1-c1nc2cc(C(F)(F)F)ncc2n1C
### Response ≥ 80%

### Prompt Enter reported mortality at 24 ppm observed with Myzus persicae (Green Peach Aphid) for CCS(=O)(=O)c1cc(OCCSC)ccc1-c1nc2cc(C(F)(F)F)ncc2n1C
### Response ≥ 80%

---

compounds and their reported melting point

Answered cases to consult:
- CCS(=O)(=O)c1cc(OC(C#N)SC)cnc1-c1nc2cc(C(F)(F)F)ncc2n1C (centres unmarked): 204 to 206 °C
- CCS(=O)(=O)c1cc(OC(C)(C)C(=O)O)cnc1-c1nc2cc(C(F)(F)F)ncc2n1C: 242 to 244 °C
- CCS(=O)(=O)c1cc(OC(C)(F)F)ccc1-c1nc2cc(C(F)(F)F)ncc2n1C: 142 to 144 °C
- CCOC(=O)C(C)(C)Oc1cnc(-c2nc3cc(C(F)(F)F)ncc3n2C)c(S(=O)(=O)CC)c1: 145 to 147 °C
- CCS(=O)(=O)c1cc(OC(SC)C(=O)OC)cnc1-c1nc2cc(C(F)(F)F)ncc2n1C (centres unmarked): 94 to 96 °C
- CCS(=O)(=O)c1cc(OC(F)(F)CBr)ccc1-c1nc2cc(C(F)(F)F)ncc2n1C: 137 to 139 °C
- CCSc1cc(OC(C)(C)C(=O)O)cnc1-c1nc2cc(C(F)(F)F)ncc2n1C: 161 to 163 °C
- CCS(=O)(=O)c1cc(OC(C)C(=O)OC)cnc1-c1nc2cc(C(F)(F)F)ncc2n1C (centres unmarked): 131 to 133 °C
- CCS(=O)(=O)c1cc(OC(C(=O)OC)S(C)(=O)=O)cnc1-c1nc2cc(C(F)(F)F)ncc2n1C (centres unmarked): 122 to 124 °C
- CCS(=O)(=O)c1cc(OC(SC)C(N)=O)cnc1-c1nc2cc(C(F)(F)F)ncc2n1C (centres unmarked): 142 to 144 °C

### Prompt Please give the measured melting point for this compound: CCS(=O)(=O)c1cc(OC(C)(C)C(C)=O)cnc1-c1nc2cc(C(F)(F)F)ncc2n1C
### Response 138 to 140 °C
